Give log10(EC50) for every item shown.
# system.under.test: T1, human BTN2A2 expressed on HEK293F cells transfected with BTN2A2-Flag plasmid (human, UniProt Q8WVV5 33-523)
# T1 construct: HEK293F cells here are not knocked out for endogenous BTN2/BTN3; also called HEK-BTN2 cells; not shown: Flag tag
# T1 sequence: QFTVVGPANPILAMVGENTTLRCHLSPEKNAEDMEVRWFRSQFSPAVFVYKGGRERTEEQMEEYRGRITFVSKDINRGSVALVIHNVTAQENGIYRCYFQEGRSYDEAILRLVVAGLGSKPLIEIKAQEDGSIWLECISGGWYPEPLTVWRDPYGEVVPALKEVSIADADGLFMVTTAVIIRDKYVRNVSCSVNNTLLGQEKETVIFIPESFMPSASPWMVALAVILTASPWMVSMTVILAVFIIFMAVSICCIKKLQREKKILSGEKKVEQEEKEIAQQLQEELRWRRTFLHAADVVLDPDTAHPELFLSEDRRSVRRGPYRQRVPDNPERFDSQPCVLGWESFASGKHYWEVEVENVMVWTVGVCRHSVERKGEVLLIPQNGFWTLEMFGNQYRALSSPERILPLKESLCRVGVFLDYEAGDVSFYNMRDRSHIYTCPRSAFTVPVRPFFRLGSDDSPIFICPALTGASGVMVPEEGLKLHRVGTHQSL
# experiment: flow cytometry titration on HEK293F cells transfected with BTN2A2-Flag
Recall that a logarithmic scale is used here: each number is log10 of EC50 in µg/mL.

Inquiry: Can you look up the measured log10(EC50) of mAb5 (mouse anti-human BTN2 mAb 8.15) (antibody, V domains shown, Mouse IgG1 purified from hybridoma supernatant; also called CNCM I-5235) VH: EVKLLESGGGLVQPGGSLKLSCAASGFDFSGYWMTWVRQAPGKGLEWIGEINPDSSTINYTPSLRDKFIISRDNAKNTLYLQMSKVRSEDTALYFCARGSYYPSYWGQGTLVTVSA VL: DIVLTQSPASLAVSLGQRATISCRASKSVSSSGYSYMNWYQQKPGQPPKLLIYLASNLESGVPARFSGSGSGTDFTLNIHPVEDEDAATYYCQHSRELPHTFGGGTKLEIK for me?
Reply text: -1.00

Inquiry: Can you look up the measured log10(EC50) of mAb6 (mouse anti-human BTN2 mAb 8.16) (antibody, V domains shown, Mouse IgG1 purified from hybridoma supernatant; also called CNCM I-5236) VH: EVKLLESGGGLVQPGGSLKLSCAASGFDFSGYWMTWVRQAPGKGLEWIGEINPDSSTINYTPSLRDKFIISRDNAKNTLYLQMSKVRSEDTALYFCARGSYYPSYWGQGTLVTVSA VL: DIVLTQSPASLAVSLGQRATISCRASKSVSSSGYSYMNWYQQKPGQPPKLLIYLASNLESGVPARFSGSGSGTDFTLNIHPVEDEDAATYYCQHSRELPHTFGGGTKLEIK for me?
Reply text: -0.96

Inquiry: Can you look up the measured log10(EC50) of mAb2 (mouse anti-human BTN2 mAb 5.28) (antibody, V domains shown, Mouse IgG1 purified from hybridoma supernatant; also called CNCM I-5232) VH: QIQLVQSGPELKKPGETVKISCKASGYTFTDYSMNWVKQAPGKGLKWVGRINTETGEPTYADDFKGRFAFSLETSASTAYLQIKNLKNEDTATYFCVRDYAKRWGQGTSVTVSS VL: DIVMTQSHKFMSTSVGDRVSITCKASQDVITAVAWYQQKPGQSPKLLIYSTSYRYTGVPDRFTGSGSGTDFTFTISSVQAEDLAVYYCLQHYTTPWTFGGGTKLEIK for me?
Reply text: -1.15

Inquiry: Can you look up the measured log10(EC50) of mAb1 (mouse anti-human BTN2 mAb 4.15) (antibody, V domains shown, Mouse IgG1 purified from hybridoma supernatant; also called CNCM I-5231) VH: QVQLQQSGAELVKPGASVKLSCKASGYIFTSYDINWVRQRPEQGLEWIGWIFPGDDSIIQNEKFKGKATLTTDKSSSTVYMQLSRLTSEDSAVYFCARLGPLRGFTYWGQGTLVTVSA VL: DIVLTQSPASLAVSLGQRATISCRASESVDRYGSSFMHWYQQKPGQPPKLLIYRASNLESGIPARFSGSGSRTDFTLTINPVEADDVATYYCQQSNEDPWTFGGGTKLEIK for me?
Reply text: -1.15

Inquiry: Can you look up the measured log10(EC50) of mAb4 (mouse anti-human BTN2 mAb 7.48) (antibody, V domains shown, Mouse IgG1 purified from hybridoma supernatant; also called CNCM I-5234) VH: EVQLVESGGDLVKPGGSLKLSCAASGFTFSDFYMYWVRRTPEKRLEWVATISDGGSHTYYPDSVKGRFTISRDNAKNNLYLQMRSLKSEDTAMYYCGRDTTIITPYWGQGTLVTVSA VL: QSVVTQESALTTSPGETVTLTCRSSTGAVTTSNYANWVQEKPDHLFTGLIGGTNNRAPGVPARFSGSLIGDKAALTITGAQTEDEAIYFCGLWYSNHWVFGGGTKLTVL for me?
Reply text: -1.10

Inquiry: Can you look up the measured log10(EC50) of mAb3 (mouse anti-human BTN2 mAb 7.28) (antibody, V domains shown, Mouse IgG1 purified from hybridoma supernatant; also called CNCM I-5233) VH: QVHLQQSGAELMKPGASVKISCKATGYTFSSYWIEWVKQRPGHGREWIGEILPGSGSTKYNEKFRGKATFAADTSSNTAYVQLSSLTSEDSAVYYCARLKGYYGGGAMDYWGQGTSVTVSS VL: DVQITQSPSYLAASPGETITINCRASKSISKYLAWYQEKPGKTNELLIYSGSTLQSGIPSRFSGSGSGTDFTLTISSLEPEDFAMYYCQQHNEYPWTFGGGTKLEIK for me?
Reply text: 1.50
